# experimentalTarget: Urotensin-2 receptor (Rattus norvegicus, UniProt P49684)
# Sequence (P49684 whole entry): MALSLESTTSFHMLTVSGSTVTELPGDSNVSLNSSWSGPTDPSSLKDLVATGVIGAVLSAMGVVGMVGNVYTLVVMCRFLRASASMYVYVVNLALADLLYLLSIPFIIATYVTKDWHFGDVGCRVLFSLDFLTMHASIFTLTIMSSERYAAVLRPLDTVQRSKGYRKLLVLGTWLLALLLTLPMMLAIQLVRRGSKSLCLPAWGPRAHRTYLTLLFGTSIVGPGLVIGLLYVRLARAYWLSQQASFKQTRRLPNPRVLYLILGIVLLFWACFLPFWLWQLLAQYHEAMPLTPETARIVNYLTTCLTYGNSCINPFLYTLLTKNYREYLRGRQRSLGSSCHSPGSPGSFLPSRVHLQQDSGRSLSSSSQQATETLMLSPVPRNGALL
# assayComment: Agonist activity at urotensin 2 receptor in Sprague-Dawley rat thoracic aortic ring assessed as induction of contraction relative to KCl-induced contraction
Bridge positions count the residues as written; N and C are the ends. Square brackets hold non-standard residues; d marks the D form. Peptide text beside a SMILES is read from it. NMeW = CN[C@@H](Cc1c[nH]c2ccccc12)C(=O)O; NMeC = CN[C@@H](CS)C(=O)O
Field: label. Allowed values: class 1 (EC50 < 5 nM) or class 0 (EC50 >= 5 nM).

Example results:
CC(C)[C@H](NC(=O)[C@@H]1CSSC[C@H](NC(=O)[C@@H](N)CC(=O)O)C(=O)N[C@@H](Cc2ccccc2)C(=O)N[C@@H](Cc2c[nH]c3ccccc23)C(=O)N[C@@H](CCCCN)C(=O)N[C@@H](Cc2ccc(O)cc2)C(=O)N1C)C(=O)O (H-DCFWKY[NMeC]V-OH; disulfide 2-7) : class 0
CC(C)[C@H](NC(=O)[C@@H]1CSSC[C@H](NC(=O)[C@@H](N)CC(=O)O)C(=O)N[C@@H](Cc2ccccc2)C(=O)N(C)[C@@H](Cc2c[nH]c3ccccc23)C(=O)N[C@@H](CCCCN)C(=O)N[C@@H](Cc2ccc(O)cc2)C(=O)N1)C(=O)O (H-DCF[NMeW]KYCV-OH; disulfide 2-7) : class 1

Incoming: Would you kindly verify if EC50 of `CC(C)[C@H](NC(=O)[C@@H]1CSSC[C@H](NC(=O)[C@H](C)N)C(=O)N[C@@H](Cc2ccccc2)C(=O)N[C@@H](Cc2c[nH]c3ccccc23)C(=O)N[C@@H](CCCCN)C(=O)N[C@@H](Cc2ccc(O)cc2)C(=O)N1C)C(=O)O` is strictly less than 5 nM?
Outgoing: class 0

Incoming: Check `CC(C)[C@H](NC(=O)[C@@H]1CSSC[C@H](NC(=O)[C@H](CC(=O)O)NC(=O)[C@@H]2CCCN2C(=O)[C@@H](NC(=O)[C@@H](N)CCC(=O)O)[C@@H](C)O)C(=O)N[C@@H](Cc2ccccc2)C(=O)N[C@@H](Cc2c[nH]c3ccccc23)C(=O)N[C@@H](CCCCN)C(=O)N[C@@H](Cc2ccc(O)cc2)C(=O)N1C)C(=O)O` too.
Outgoing: class 0

Incoming: Also CC(C)[C@H](NC(=O)[C@@H]1CSSC[C@H](N(C)C(=O)[C@@H](N)CC(=O)O)C(=O)N[C@@H](Cc2ccccc2)C(=O)N[C@@H](Cc2c[nH]c3ccccc23)C(=O)N[C@@H](CCCCN)C(=O)N[C@@H](Cc2ccc(O)cc2)C(=O)N1)C(=O)O (H-D[NMeC]FWKYCV-OH; disulfide 2-7) ?
Outgoing: class 1

Incoming: What about `CC(C)[C@H](NC(=O)[C@@H]1CSSC[C@H](NC(=O)[C@H](C)N)C(=O)N[C@@H](Cc2ccccc2)C(=O)N(C)[C@@H](Cc2c[nH]c3ccccc23)C(=O)N[C@@H](CCCCN)C(=O)N[C@@H](Cc2ccc(O)cc2)C(=O)N1)C(=O)O` ?
Outgoing: class 0

----------
# experimentalTarget: Urotensin-2 receptor (Homo sapiens, UniProt Q9UKP6)
# assayComment: Agonist activity at urotensin 2 receptor (unknown origin) expressed in HEK293 cells co-expressing Gq-polycistronic BRET biosensor assessed as induction of Gq activation measured for 5 mins by luminescence detection based BRET assay
Bridge positions count the residues as written; N and C are the ends. Square brackets hold non-standard residues; d marks the D form. Peptide text beside a SMILES is read from it. NMeC = CN[C@@H](CS)C(=O)O
measuredMetric: EC50 (nM)
State just the number; it will be interpreted in nM.

Example compounds with recorded EC50:
CC(C)[C@H](NC(=O)[C@@H]1CSSC[C@H](NC(=O)[C@@H](N)CC(=O)O)C(=O)N[C@@H](Cc2ccccc2)C(=O)N[C@@H](Cc2c[nH]c3ccccc23)C(=O)N[C@@H](CCCCN)C(=O)N[C@@H](Cc2ccc(O)cc2)C(=O)N1C)C(=O)O (H-DCFWKY[NMeC]V-OH; disulfide 2-7) : 4.68
CC(C)[C@H](NC(=O)[C@@H]1CSSC[C@H](NC(=O)[C@@H](N)CC(=O)O)C(=O)N[C@@H](Cc2ccccc2)C(=O)N[C@@H](Cc2c[nH]c3ccccc23)C(=O)N[C@@H](CCCCN)C(=O)N[C@@H](Cc2ccc(O)cc2)C(=O)N1)C(=O)O (H-DCFWKYCV-OH; disulfide 2-7) : 1.86
CC(C)[C@H](NC(=O)[C@@H]1CSSC[C@H](NC(=O)[C@H](CC(=O)O)NC(=O)[C@@H]2CCCN2C(=O)[C@@H](NC(=O)[C@@H](N)CCC(=O)O)[C@@H](C)O)C(=O)N[C@@H](Cc2ccccc2)C(=O)N[C@@H](Cc2c[nH]c3ccccc23)C(=O)N[C@@H](CCCCN)C(=O)N[C@@H](Cc2ccc(O)cc2)C(=O)N1C)C(=O)O : 2.69

Incoming: // lookup EC50 | system=Urotensin-2 receptor (Homo sapiens, UniProt Q9UKP6) | key= `CC(C)[C@H](NC(=O)[C@@H]1CSSC[C@H](NC(=O)[C@H](C)N)C(=O)N[C@@H](Cc2ccccc2)C(=O)N(C)[C@@H](Cc2c[nH]c3ccccc23)C(=O)N[C@@H](CCCCN)C(=O)N[C@@H](Cc2ccc(O)cc2)C(=O)N1)C(=O)O`
Outgoing: 13.8

----------
Target protein (sequence): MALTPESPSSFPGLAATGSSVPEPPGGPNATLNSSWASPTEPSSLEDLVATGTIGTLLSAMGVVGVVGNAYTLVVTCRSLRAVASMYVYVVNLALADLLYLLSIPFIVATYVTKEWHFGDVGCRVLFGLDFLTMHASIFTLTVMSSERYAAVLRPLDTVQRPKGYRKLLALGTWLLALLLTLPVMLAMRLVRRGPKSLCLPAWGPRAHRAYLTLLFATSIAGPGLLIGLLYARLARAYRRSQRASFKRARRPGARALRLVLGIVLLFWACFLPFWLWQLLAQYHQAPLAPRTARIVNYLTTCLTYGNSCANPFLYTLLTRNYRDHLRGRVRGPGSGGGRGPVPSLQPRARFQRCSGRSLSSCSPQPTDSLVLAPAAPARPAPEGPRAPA
Bridge positions count the residues as written; N and C are the ends. Square brackets hold non-standard residues; d marks the D form. Peptide text beside a SMILES is read from it. NMeF = CN[C@@H](Cc1ccccc1)C(=O)O; NMeC = CN[C@@H](CS)C(=O)O
Form field: Ki (one value per entry).
Numbers only here, please. The scale is nM.

CC(C)[C@H](NC(=O)[C@@H]1CSSC[C@H](NC(=O)[C@@H](N)CC(=O)O)C(=O)N(C)[C@@H](Cc2ccccc2)C(=O)N[C@@H](Cc2c[nH]c3ccccc23)C(=O)N[C@@H](CCCCN)C(=O)N[C@@H](Cc2ccc(O)cc2)C(=O)N1)C(=O)O (H-DC[NMeF]WKYCV-OH; disulfide 2-7) : 229

Proceeding to the next compound to report its Ki.
Incoming: I'd like to know its Ki. The compound in question is CC(C)[C@H](NC(=O)[C@@H]1CSSC[C@H](N(C)C(=O)[C@@H](N)CC(=O)O)C(=O)N[C@@H](Cc2ccccc2)C(=O)N[C@@H](Cc2c[nH]c3ccccc23)C(=O)N[C@@H](CCCCN)C(=O)N[C@@H](Cc2ccc(O)cc2)C(=O)N1)C(=O)O (H-D[NMeC]FWKYCV-OH; disulfide 2-7)
Outgoing: 2.95

----------
# experimentalTarget: Urotensin-2 receptor (Homo sapiens, UniProt Q9UKP6)
# assayComment: Agonist activity at urotensin 2 receptor (unknown origin) expressed in HEK293 cells co-expressing Gq-polycistronic BRET biosensor assessed as induction of Gq activation measured for 5 mins by luminescence detection based BRET assay
Bridge positions count the residues as written; N and C are the ends. Square brackets hold non-standard residues; d marks the D form. Peptide text beside a SMILES is read from it. NMeW = CN[C@@H](Cc1c[nH]c2ccccc12)C(=O)O; NMeF = CN[C@@H](Cc1ccccc1)C(=O)O
measuredMetric: pEC50
As a rule, pEC50 stands for the negative log10 of the concentration, concentration in M.

Known results for molecules:
CC(C)[C@H](NC(=O)[C@@H]1CSSC[C@H](NC(=O)[C@@H](N)CC(=O)O)C(=O)N(C)[C@@H](Cc2ccccc2)C(=O)N[C@@H](Cc2c[nH]c3ccccc23)C(=O)N[C@@H](CCCCN)C(=O)N[C@@H](Cc2ccc(O)cc2)C(=O)N1)C(=O)O (H-DC[NMeF]WKYCV-OH; disulfide 2-7) : 7.73
CC(C)[C@H](NC(=O)[C@@H]1CSSC[C@H](NC(=O)[C@H](C)N)C(=O)N(C)[C@@H](Cc2ccccc2)C(=O)N[C@@H](Cc2c[nH]c3ccccc23)C(=O)N[C@@H](CCCCN)C(=O)N[C@@H](Cc2ccc(O)cc2)C(=O)N1)C(=O)O : 6.98
CC(C)[C@H](NC(=O)[C@@H]1CSSC[C@H](NC(=O)[C@@H](N)CC(=O)O)C(=O)N[C@@H](Cc2ccccc2)C(=O)N(C)[C@@H](Cc2c[nH]c3ccccc23)C(=O)N[C@@H](CCCCN)C(=O)N[C@@H](Cc2ccc(O)cc2)C(=O)N1)C(=O)O (H-DCF[NMeW]KYCV-OH; disulfide 2-7) : 8.44
CC(C)[C@H](NC(=O)[C@@H]1CSSC[C@H](NC(=O)[C@H](C)N)C(=O)N[C@@H](Cc2ccccc2)C(=O)N[C@@H](Cc2c[nH]c3ccccc23)C(=O)N[C@@H](CCCCN)C(=O)N[C@@H](Cc2ccc(O)cc2)C(=O)N1)C(=O)O : 8.57
CC(C)[C@H](NC(=O)[C@@H]1CSSC[C@H](NC(=O)[C@H](CC(=O)O)NC(=O)[C@@H]2CCCN2C(=O)[C@@H](NC(=O)[C@@H](N)CCC(=O)O)[C@@H](C)O)C(=O)N[C@@H](Cc2ccccc2)C(=O)N(C)[C@@H](Cc2c[nH]c3ccccc23)C(=O)N[C@@H](CCCCN)C(=O)N[C@@H](Cc2ccc(O)cc2)C(=O)N1)C(=O)O : 8.25

Incoming: Entry under review: `CC(C)[C@H](NC(=O)[C@@H]1CSSC[C@H](NC(=O)[C@H](C)N)C(=O)N[C@@H](Cc2ccccc2)C(=O)N[C@@H](Cc2c[nH]c3ccccc23)C(=O)N[C@@H](CCCCN)C(=O)N[C@@H](Cc2ccc(O)cc2)C(=O)N1C)C(=O)O` . Reported pEC50?
Outgoing: 8.28
